# ASSAY METHOD TEXT: Fraction unbound in rat plasma by equilibrium dialysis method
# Format: ADME, cell-free
ASSAY READOUT: fraction unbound

Tell me the measured fraction unbound of O=C(NC1CCC1)c1ccc(C#Cc2cccc(F)c2)cn1 , please.
< 0.01

----------
# MEASURED ON: Metabotropic glutamate receptor 5 (Rattus norvegicus)
# ASSAY METHOD TEXT: Potentiation of rat mGluR5 receptor stably expressed in HEK293 cells assessed as fold shift in glutamate concentration response curve at 10 uM relative to control
# Assay type: cell-based
ASSAY READOUT: fold change (FC)

Worked set:
>  <SMILES NOTATION>
CC(C)(O)CCNC(=O)c1ccc(C#Cc2cccc(F)c2)cn1

>  <MEASURED ON>
Metabotropic glutamate receptor 5 (Rattus norvegicus)

>  <fold change (FC)>
5.3

$$$$
>  <SMILES NOTATION>
CC1(CNC(=O)c2ccc(C#Cc3cccc(F)c3)cn2)COC1

>  <MEASURED ON>
Metabotropic glutamate receptor 5 (Rattus norvegicus)

>  <fold change (FC)>
3.3

$$$$
>  <SMILES NOTATION>
CC(C)[C@@H](C)NC(=O)c1ccc(C#Cc2ccccn2)cn1

>  <MEASURED ON>
Metabotropic glutamate receptor 5 (Rattus norvegicus)

>  <fold change (FC)>
1.3

$$$$

Tell me the measured fold change (FC) of C[C@@H](NC(=O)c1ccc(C#Cc2ccccn2)cn1)C(C)(C)F , please.
1.5

# repeat for C[C@@H](NC(=O)c1ccc(C#Cc2ccccn2)cn1)C(C)(C)O
1.7

----------
# MEASURED ON: Metabotropic glutamate receptor 5 (Rattus norvegicus, UniProt P31424)
# Sequence (P31424 whole entry): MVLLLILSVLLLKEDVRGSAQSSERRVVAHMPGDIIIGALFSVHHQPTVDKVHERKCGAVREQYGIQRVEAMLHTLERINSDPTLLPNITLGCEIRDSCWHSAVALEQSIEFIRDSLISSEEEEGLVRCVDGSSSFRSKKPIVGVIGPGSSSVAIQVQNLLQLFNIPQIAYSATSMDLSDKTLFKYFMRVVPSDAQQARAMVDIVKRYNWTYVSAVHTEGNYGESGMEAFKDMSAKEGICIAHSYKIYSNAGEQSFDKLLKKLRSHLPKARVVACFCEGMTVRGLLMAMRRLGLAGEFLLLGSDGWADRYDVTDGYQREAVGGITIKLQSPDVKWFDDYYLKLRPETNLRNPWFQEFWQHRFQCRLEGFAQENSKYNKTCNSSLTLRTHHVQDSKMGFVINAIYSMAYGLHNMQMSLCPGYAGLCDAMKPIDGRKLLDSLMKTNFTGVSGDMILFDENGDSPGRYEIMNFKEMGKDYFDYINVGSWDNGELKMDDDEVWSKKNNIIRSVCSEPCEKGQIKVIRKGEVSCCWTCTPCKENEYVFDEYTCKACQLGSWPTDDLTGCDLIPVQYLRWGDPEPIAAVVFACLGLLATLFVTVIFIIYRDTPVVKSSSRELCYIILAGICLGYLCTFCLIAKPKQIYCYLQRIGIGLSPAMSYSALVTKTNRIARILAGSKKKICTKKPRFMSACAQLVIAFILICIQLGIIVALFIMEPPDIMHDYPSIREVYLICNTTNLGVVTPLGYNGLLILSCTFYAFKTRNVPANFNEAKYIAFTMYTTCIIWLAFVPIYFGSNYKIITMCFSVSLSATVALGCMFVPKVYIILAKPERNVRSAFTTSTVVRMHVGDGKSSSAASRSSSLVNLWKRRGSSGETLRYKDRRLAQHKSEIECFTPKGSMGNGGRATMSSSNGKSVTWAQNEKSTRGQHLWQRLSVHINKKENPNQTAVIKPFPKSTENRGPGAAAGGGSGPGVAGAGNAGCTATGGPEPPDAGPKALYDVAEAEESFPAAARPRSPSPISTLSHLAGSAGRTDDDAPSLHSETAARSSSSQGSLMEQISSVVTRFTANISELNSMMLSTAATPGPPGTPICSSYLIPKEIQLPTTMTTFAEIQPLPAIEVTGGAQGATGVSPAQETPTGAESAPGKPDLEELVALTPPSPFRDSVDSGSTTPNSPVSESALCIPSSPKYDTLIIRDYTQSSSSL
# ASSAY METHOD TEXT: Agonist activity at rat mGluR5 stably expressed in HEK293 cells assessed as increase in intracellular calcium level by Fluo-4AM dye-based fluorescence assay relative to glutamate
# Assay type: cell-based
# CONDITION INFO: read-out: Efficacy
Assign label 1 to entries whose Emax meets or exceeds 20%; assign label 0 to the rest.

>  <SMILES NOTATION>
C[C@@H](NC(=O)c1ccc(C#Cc2cccc(F)c2)cn1)C(C)(C)O

>  <CLASS NAME>
label 1

$$$$
>  <SMILES NOTATION>
C[C@@H](NC(=O)c1nc(C#Cc2cccc(F)c2)cs1)C(C)(C)O

>  <CLASS NAME>
label 1

$$$$
>  <SMILES NOTATION>
CC1(CCNC(=O)c2ccc(C#Cc3cccc(F)c3)cn2)COC1

>  <CLASS NAME>
label 0

$$$$
>  <SMILES NOTATION>
CC(C)[C@@H](C)NC(=O)c1ccc(C#Cc2cccc(F)c2)cn1

>  <CLASS NAME>
label 1

$$$$
>  <SMILES NOTATION>
CC(C)(C)CNC(=O)c1ccc(C#Cc2cccc(F)c2)cn1

>  <CLASS NAME>
label 0

$$$$
>  <SMILES NOTATION>
C[C@@H](NC(=O)c1ccc(C#Cc2cc(F)ccn2)cn1)C(C)(C)O

>  <CLASS NAME>
label 1

$$$$

Quick check, Emax >= 20%? C[C@@H](NC(=O)c1ccc(C#Cc2ccccn2)cn1)C(C)(C)C
label 1

# repeat for C[C@@H](NC(=O)c1ccc(C#Cc2cc(F)cc(F)c2)cn1)C(C)(C)O
label 1

# repeat for O=C(NCC(F)(F)F)c1ccc(C#Cc2cccc(F)c2)cn1
label 0

# repeat for C[C@@H](NC(=O)c1ccc(C#Cc2ncccc2F)cn1)C(C)(C)O
label 1
